Biological target: T1, soluble human GPNMB (recombinant extracellular domain) (human, UniProt Q14956 23-498)
T1 construct: also called huGPNMB; recombinant human GPNMB extracellular domain; not shown: C-terminal polyhistidine or Avi-His tag
T1 sequence: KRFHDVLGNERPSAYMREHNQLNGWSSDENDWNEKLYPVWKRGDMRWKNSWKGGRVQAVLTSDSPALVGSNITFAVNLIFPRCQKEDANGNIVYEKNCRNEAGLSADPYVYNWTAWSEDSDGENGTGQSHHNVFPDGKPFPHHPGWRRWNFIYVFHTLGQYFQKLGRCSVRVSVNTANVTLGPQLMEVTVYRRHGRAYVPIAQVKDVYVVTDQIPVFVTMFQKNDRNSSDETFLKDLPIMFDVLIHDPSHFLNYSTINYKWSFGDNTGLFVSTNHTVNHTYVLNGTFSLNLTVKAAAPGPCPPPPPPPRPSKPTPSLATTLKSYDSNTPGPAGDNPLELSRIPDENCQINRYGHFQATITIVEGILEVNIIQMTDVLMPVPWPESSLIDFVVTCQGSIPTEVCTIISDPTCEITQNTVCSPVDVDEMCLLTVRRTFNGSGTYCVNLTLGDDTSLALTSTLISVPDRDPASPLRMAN
Assay: SPR Biacore, IgG captured
measured-parameter: Kd (nM)
Quick reminder: number only, in nM, skip the unit.

These recorded examples may help you get a feel for the data.
binder: anti-GPNMB antibody GPN-84 (antibody, V domains shown) VH: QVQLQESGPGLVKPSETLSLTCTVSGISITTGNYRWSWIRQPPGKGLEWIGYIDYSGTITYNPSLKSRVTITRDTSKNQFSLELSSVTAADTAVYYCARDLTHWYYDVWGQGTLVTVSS VL: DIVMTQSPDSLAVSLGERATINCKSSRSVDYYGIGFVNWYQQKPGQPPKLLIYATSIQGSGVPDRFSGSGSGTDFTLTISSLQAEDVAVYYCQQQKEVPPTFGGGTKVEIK
unit-spec: nM
Kd: 9.6
--
binder: anti-GPNMB antibody GPN-97 (antibody, V domains shown) VH: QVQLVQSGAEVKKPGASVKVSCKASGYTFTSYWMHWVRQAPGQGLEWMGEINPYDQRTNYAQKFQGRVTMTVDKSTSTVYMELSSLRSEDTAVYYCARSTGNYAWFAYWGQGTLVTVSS VL: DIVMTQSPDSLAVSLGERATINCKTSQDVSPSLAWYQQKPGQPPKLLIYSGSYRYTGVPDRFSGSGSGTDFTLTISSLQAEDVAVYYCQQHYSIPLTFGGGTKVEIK
unit-spec: nM
Kd: 6.7

Would you kindly look at the next entry?
Task: // returns reported Kd for input anti-GPNMB antibody GPN-90 (antibody, V domains shown) VH: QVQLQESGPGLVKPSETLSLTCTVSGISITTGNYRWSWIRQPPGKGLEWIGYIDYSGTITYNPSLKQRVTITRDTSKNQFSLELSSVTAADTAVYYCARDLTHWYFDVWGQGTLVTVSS VL: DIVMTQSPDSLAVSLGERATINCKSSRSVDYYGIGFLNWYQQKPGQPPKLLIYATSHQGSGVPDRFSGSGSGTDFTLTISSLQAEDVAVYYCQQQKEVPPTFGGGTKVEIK
Output: 2.8
